Just for reference, patent US6100275A is where these values come from.

target_entity: 3H-5-hydroxytryptamine (5-HT, serotonin) uptake in cortical synaptosomes (Rattus norvegicus, UniProt P31652)
Construct: Cerebral cortices from male Wistar rats (150-200 g)
Sequence (P31652 whole entry): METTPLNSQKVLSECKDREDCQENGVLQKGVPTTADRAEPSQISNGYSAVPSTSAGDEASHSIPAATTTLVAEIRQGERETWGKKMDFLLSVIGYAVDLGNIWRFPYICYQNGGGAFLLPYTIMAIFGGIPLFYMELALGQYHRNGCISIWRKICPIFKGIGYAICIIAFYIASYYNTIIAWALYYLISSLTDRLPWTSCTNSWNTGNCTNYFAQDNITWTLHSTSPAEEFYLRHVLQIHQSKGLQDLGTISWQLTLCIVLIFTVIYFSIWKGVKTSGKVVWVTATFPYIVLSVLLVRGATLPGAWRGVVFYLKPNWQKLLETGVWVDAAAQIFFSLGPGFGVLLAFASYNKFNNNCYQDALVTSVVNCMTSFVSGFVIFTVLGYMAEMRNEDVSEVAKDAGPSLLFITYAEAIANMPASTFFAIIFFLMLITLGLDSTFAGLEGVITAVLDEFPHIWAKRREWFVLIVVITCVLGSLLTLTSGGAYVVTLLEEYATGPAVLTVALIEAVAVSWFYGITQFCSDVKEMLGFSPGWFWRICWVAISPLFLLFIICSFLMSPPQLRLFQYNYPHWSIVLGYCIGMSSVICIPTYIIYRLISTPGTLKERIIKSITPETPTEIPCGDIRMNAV
assay_name: In vitro inhibition of 3H-5-hydroxytryptamine (3H-5-HT, serotonin) uptake in cortical synaptosomes
readout_label: pIC50
pIC50 field: float, defined as -log10 of concentration (mol/L).

Query block: Name the recorded pIC50 for CN1C2C=C(c3ccc(Cl)c(Cl)c3)CC1CC2 (racemic) .
Result block: 8.33

* * *

target_entity: 3H-dopamine (DA) uptake in striatal synaptosomes (Rattus norvegicus, UniProt P23977)
Construct: Corpi striati from male Wistar rats (150-200 g)
Sequence (P23977 whole entry): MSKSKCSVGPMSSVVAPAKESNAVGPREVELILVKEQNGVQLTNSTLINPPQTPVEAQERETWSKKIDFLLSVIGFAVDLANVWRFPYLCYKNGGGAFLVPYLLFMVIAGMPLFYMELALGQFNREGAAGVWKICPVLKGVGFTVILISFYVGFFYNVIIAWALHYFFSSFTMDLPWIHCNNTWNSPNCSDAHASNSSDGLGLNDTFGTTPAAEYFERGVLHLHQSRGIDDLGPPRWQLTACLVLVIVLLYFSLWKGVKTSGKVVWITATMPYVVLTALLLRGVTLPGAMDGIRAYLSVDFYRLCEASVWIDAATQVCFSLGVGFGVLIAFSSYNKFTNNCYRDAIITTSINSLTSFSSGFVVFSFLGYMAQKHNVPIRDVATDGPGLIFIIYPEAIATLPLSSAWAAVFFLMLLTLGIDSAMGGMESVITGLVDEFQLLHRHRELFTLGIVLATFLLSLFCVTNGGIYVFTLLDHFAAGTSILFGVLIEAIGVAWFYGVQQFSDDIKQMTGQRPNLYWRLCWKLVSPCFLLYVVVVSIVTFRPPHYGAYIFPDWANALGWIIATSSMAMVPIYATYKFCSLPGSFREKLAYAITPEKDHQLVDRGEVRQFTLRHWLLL
assay_name: In vitro inhibition of 3H-dopamine (3H-DA) uptake in striatal synaptosomes
readout_label: IC50 (nM)
Output spec: scalar in nM, unitless text.

Query block: Notebook entry, 3H-dopamine (DA) uptake in striatal synaptosomes (Rattus norvegicus, UniProt P23977) assay: IC50 of CN1C2C=C(c3ccc(Cl)c(Cl)c3)CC1CC2 (racemic) = ?
Result block: 79
